Overview of reported -logMIC across a group of compounds:
# Test system: Mycobacterium tuberculosis
# procedure_details: Antimycobacterial activity against Mycobacterium tuberculosis by NCCLS agar dilution method
# Type: functional
quantity: -logMIC

compound | measured_value
CC(C)(C)n1cc(C(=O)O)c(=O)c2cc([N+](=O)[O-])c(N3CCN(Cc4ccc5c(c4)OCO5)CC3)cc21 | 5.513
CCN(CC)C(=O)C1CCCN(c2cc3c(cc2[N+](=O)[O-])c(=O)c(C(=O)O)cn3-c2ccc(F)cc2)C1 (centres undefined) | 5.213
CC(C)(C)NC(=O)C1c2ccccc2CCN1c1cc2c(cc1[N+](=O)[O-])c(=O)c(C(=O)O)cn2-c1ccc(F)cc1 (centres undefined) | 5.252
CC1CN(c2cc3c(cc2[N+](=O)[O-])c(=O)c(C(=O)O)cn3-c2ccc(F)cc2)CC(C)O1 (centres undefined) | 5.452

* * *

# Test system: Mycobacterium tuberculosis
# procedure_details: Antimycobacterial activity against Mycobacterium tuberculosis by NCCLS agar dilution method
# Format: functional
Overview of reported -logMIC across a group of compounds:

smi | -logMIC
O=C(O)c1cn2c(n1)CN(c1cc3c(cc1[N+](=O)[O-])c(=O)c(C(=O)O)cn3-c1ccc(F)cc1)CC2 | 4.92
O=C(O)c1cn(-c2ccc(F)cc2)c2cc(N3CCN(Cc4ccc5c(c4)OCO5)CC3)c([N+](=O)[O-])cc2c1=O | 5.545
O=C(O)c1cn(-c2ccc(F)cc2)c2cc(N3CCC(N4CCCCC4)CC3)c([N+](=O)[O-])cc2c1=O | 5.199

* * *

Overview of reported -logMIC across a group of compounds:
# Test system: Mycobacterium tuberculosis
# procedure_details: Antimycobacterial activity against Mycobacterium tuberculosis by NCCLS agar dilution method
# Type: functional

compound | system_under_test | -logMIC
O=C(O)c1cn(C2CC2)c2cc(N3CCC(O)(c4ccc(Cl)cc4)CC3)c([N+](=O)[O-])cc2c1=O | Mycobacterium tuberculosis | 6.092
Cc1onc(-c2c(F)cccc2F)c1C(=O)N1CCN(c2cc3c(cc2[N+](=O)[O-])c(=O)c(C(=O)O)cn3-c2ccc(F)cc2)CC1 | Mycobacterium tuberculosis | 5.306
CC(C)(C)n1cc(C(=O)O)c(=O)c2cc([N+](=O)[O-])c(N3CCN(C(=O)c4ccco4)CC3)cc21 | Mycobacterium tuberculosis | 5.175
CC(C)(C)n1cc(C(=O)O)c(=O)c2cc([N+](=O)[O-])c(N3CCn4cc(C(=O)O)nc4C3)cc21 | Mycobacterium tuberculosis | 5.163
O=C(O)c1cn(C2CC2)c2cc(N3CCN(C(=O)C4COc5ccccc5O4)CC3)c([N+](=O)[O-])cc2c1=O (stereo unspecified) | Mycobacterium tuberculosis | 5.524
O=C(O)c1cn(-c2ccc(F)cc2)c2cc(N3CCN(C(c4ccccc4)c4ccc(Cl)cc4)CC3)c([N+](=O)[O-])cc2c1=O (stereo unspecified) | Mycobacterium tuberculosis | 4.992
O=C(O)c1cn(-c2ccc(F)cc2)c2cc(N3CCSCC3)c([N+](=O)[O-])cc2c1=O | Mycobacterium tuberculosis | 4.837
CC(C)(C)n1cc(C(=O)O)c(=O)c2cc([N+](=O)[O-])c(N3CCC4(CC3)OCCO4)cc21 | Mycobacterium tuberculosis | 5.128
O=C(O)c1cn(C2CC2)c2cc(N3CCC(N4CCCCC4)CC3)c([N+](=O)[O-])cc2c1=O | Mycobacterium tuberculosis | 6.367
CN1CCN(c2cc3c(cc2[N+](=O)[O-])c(=O)c(C(=O)O)cn3C(C)(C)C)CC1c1ccccc1 (stereo unspecified) | Mycobacterium tuberculosis | 4.793
O=C(O)c1cn(-c2ccc(F)cc2)c2cc(N3CCN(C(=O)C4COc5ccccc5O4)CC3)c([N+](=O)[O-])cc2c1=O (stereo unspecified) | Mycobacterium tuberculosis | 5.565
CC(C)(C)n1cc(C(=O)O)c(=O)c2cc([N+](=O)[O-])c(N3CCC(n4c(=O)[nH]c5cc(Cl)ccc54)CC3)cc21 | Mycobacterium tuberculosis | 5.237
CC(C)(C)n1cc(C(=O)O)c(=O)c2cc([N+](=O)[O-])c(N3CCN(C(c4ccccc4)c4ccc(Cl)cc4)CC3)cc21 (stereo unspecified) | Mycobacterium tuberculosis | 5.264
COc1ccc(CC2C3=C(CCCC3)CCN2c2cc3c(cc2[N+](=O)[O-])c(=O)c(C(=O)O)cn3-c2ccc(F)cc2)cc1 (stereo unspecified) | Mycobacterium tuberculosis | 5.271
CC1CN(c2cc3c(cc2[N+](=O)[O-])c(=O)c(C(=O)O)cn3C2CC2)CC(C)O1 (stereo unspecified) | Mycobacterium tuberculosis | 5.697
CC(C)(C)NC(=O)C1c2ccccc2CCN1c1cc2c(cc1[N+](=O)[O-])c(=O)c(C(=O)O)cn2C1CC1 (stereo unspecified) | Mycobacterium tuberculosis | 5.81

* * *

# System: Mycobacterium tuberculosis
# procedure_details: Antimycobacterial activity against Mycobacterium tuberculosis by NCCLS agar dilution method
# Type: functional
Overview of reported -logMIC across a group of compounds:
quantity: -logMIC

compound | measured_value
O=C(O)c1cn(-c2ccc(F)cc2)c2cc(N3CCC(n4c(=O)[nH]c5cc(Cl)ccc54)CC3)c([N+](=O)[O-])cc2c1=O | 5.266
O=C(O)c1cn(-c2ccc(F)cc2)c2cc(N3CCC4(CC3)OCCO4)c([N+](=O)[O-])cc2c1=O | 5.176
O=C(O)c1cn(C2CC2)c2cc(N3CCSCC3)c([N+](=O)[O-])cc2c1=O | 5.38
CCN(CC)C(=O)C1CCCN(c2cc3c(cc2[N+](=O)[O-])c(=O)c(C(=O)O)cn3C(C)(C)C)C1 (stereo not drawn) | 5.179
CC(C)(C)n1cc(C(=O)O)c(=O)c2cc([N+](=O)[O-])c(N3CCSCC3)cc21 | 5.097
CCN(CC)C(=O)C1CCCN(c2cc3c(cc2[N+](=O)[O-])c(=O)c(C(=O)O)cn3C2CC2)C1 (stereo not drawn) | 5.466
O=C(O)c1cn(C2CC2)c2cc(N3CCN(C(c4ccccc4)c4ccc(Cl)cc4)CC3)c([N+](=O)[O-])cc2c1=O (stereo not drawn) | 5.253
O=C(O)c1cn(-c2ccc(F)cc2)c2cc(N3CCN(C(=O)c4ccco4)CC3)c([N+](=O)[O-])cc2c1=O | 5.209

Values were extracted from ChEMBL document CHEMBL3046486.
